- Tested on: HEK-293T
- measurement-description: Multiplex assay against HEK293T
- Type: toxicity, cell-based
- measurement-conditions: human, 12 h, 10 µM, compound concentration 10 uM, replicate 1
Friendly reminder: Population Pyknosed Nuclei (%) below 20% is Satisfied, at or above is Not satisfied.

compound=NCCc1cn(S(=O)(=O)c2c(Cl)nc3sccn23)c2ccccc12.O=C(O)C(=O)O group_label="Not satisfied"
compound=CCCCC(=O)N(Cc1ccc(-c2ccccc2-c2nnn[nH]2)cc1)[C@H](C(=O)O)C(C)C group_label=Satisfied
compound=CC[C@@H](C)Nc1nc(C)nc2c(-c3ccc(OC)nc3C)c(C)nn12 group_label=Satisfied
compound=COc1cccc2c1c(NS(=O)(=O)c1ccc(Cl)s1)nn2Cc1cccc(CNC(=O)C(C)(C)O)c1 group_label=Satisfied
compound=CC(C)(C)c1cc(NC(=O)Nc2ccc(-c3cn4c(n3)sc3cc(OCCN5CCOCC5)ccc34)cc2)no1 group_label="Not satisfied"
compound="Cc1sc2c(c1C)C(c1ccc(Cl)cc1)=N[C@@H](CC(=O)NCCCCCCCCNC(=O)COc1cccc3c1C(=O)N(C1CCC(=O)NC1=O)C3=O)c1nnc(C)n1-2 (stereo partly drawn)" group_label="Not satisfied"
compound=CCCOc1ccc2[nH]cc(C3=CCNCC3)c2n1.Cl group_label=Satisfied
compound=CCCCC1=NC2(CCCC2)C(=O)N1Cc1ccc(-c2ccccc2-c2nnn[nH]2)cc1 group_label="Not satisfied"
compound=CC(C)COc1ccc(CNC(=O)N(Cc2ccc(F)cc2)C2CCN(C)CC2)cc1 group_label="Not satisfied"
compound="CCCCCC(O)/C=C/[C@H]1C(=O)CC(O)C1C/C=C\\CCCC(=O)O (stereo partly drawn)" group_label=Satisfied
compound=CN1CCN(c2cc(-c3ccccc3)nc(N)n2)CC1 group_label=Satisfied
compound=CC(/C=C1\SC(=S)N(CCCC(=O)Nc2ccc(C(=O)O)c(O)c2)C1=O)=C\c1ccccc1 group_label=Satisfied
compound="COC[C@@H](c1ccc(C(F)(F)F)cc1)N1CCN(C2(C)CCN(C(=O)c3c(C)ncnc3C)CC2)C[C@@H]1C.O=C(O)/C=C\\C(=O)O [VICRIVIROC MALEATE]" group_label=Satisfied

---

Quick list: Population Normal (%) per entry.
- Test system: Fibroblast
- measurement-description: Multiplex assay against human fibroblast
- Type: toxicity, cell-based
- measurement-conditions: 12 h, 1 µM, compound concentration 1 uM, replicate 1
result-type: Population Normal (%)

compound=CN(C)C(=O)Cn1cc(-c2ccc(-c3cncc4ccccc34)cc2)cn1 reported_measurement=100
compound=C[C@H](N)COC(=O)[C@@H](CCCCN)NC(=O)Cc1c(-c2ccc3ccccc3c2)[nH]c2c1ccc1ccccc12 reported_measurement=98
compound=N#Cc1c(Oc2cccc(OS(=O)(=O)CCCC(F)(F)F)c2)cccc1C(F)(F)F reported_measurement=97
compound="CN[C@@H](C)C(=O)N[C@H](C(=O)N1CCC[C@H]1C(=O)Nc1snnc1-c1ccccc1)C1CCCCC1 [GDC-0152]" reported_measurement=95
compound=CCCCC(=O)N(Cc1ccc(-c2ccccc2-c2nnn[nH]2)cc1)[C@H](C(=O)O)C(C)C reported_measurement=95

---

- Test system: Fibroblast
- measurement-description: Multiplex assay against human fibroblast
- Format: toxicity, cell-based
- measurement-conditions: 12 h, 10 µM, compound concentration 10 uM, replicate 2
result-type: Total Cell Count

molecule=Cc1noc(-c2ccc(-c3ccc(CC(=O)O)cc3)cc2)c1NC(=O)O[C@H](C)c1ccccc1Cl reported_measurement=90
molecule=C[C@H](N)COC(=O)[C@@H](CCCCN)NC(=O)Cc1c(-c2ccc3ccccc3c2)[nH]c2c1ccc1ccccc12 reported_measurement=167
molecule=CCc1cc2cc(NS(=O)(=O)c3ccc(C#N)cc3)ccc2n(CC)c1=O reported_measurement=153
molecule=CC[C@@H](C)Nc1nc(C)nc2c(-c3ccc(OC)nc3C)c(C)nn12 reported_measurement=147
molecule="Cc1sc2c(c1C)C(c1ccc(Cl)cc1)=N[C@@H](CC(=O)NCCCCCCCCNC(=O)COc1cccc3c1C(=O)N(C1CCC(=O)NC1=O)C3=O)c1nnc(C)n1-2 (some centres not stated)" reported_measurement=115
molecule=N#Cc1c(Oc2cccc(OS(=O)(=O)CCCC(F)(F)F)c2)cccc1C(F)(F)F reported_measurement=138
molecule=CC(/C=C1\SC(=S)N(CCCC(=O)Nc2ccc(C(=O)O)c(O)c2)C1=O)=C\c1ccccc1 reported_measurement=122

---

- System: HEK-293T
- measurement-description: Multiplex assay against HEK293T
- Type: toxicity, cell-based
- measurement-conditions: human, 12 h, 10 µM, compound concentration 10 uM, replicate 2
Here, each record is paired with measured Population Mitochondria Different-Phenotype (%) data.
result-type: Population Mitochondria Different-Phenotype (%)

compound=COc1cccc2c1c(NS(=O)(=O)c1ccc(Cl)s1)nn2Cc1cccc(CNC(=O)C(C)(C)O)c1 tested_on=HEK-293T reported_measurement=69%
compound="Cl.N=C(N)NC(=O)Cc1c(Cl)cccc1Cl [GUANFACINE HYDROCHLORIDE]" tested_on=HEK-293T reported_measurement=69%
compound=CCc1cc2cc(NS(=O)(=O)c3ccc(C#N)cc3)ccc2n(CC)c1=O tested_on=HEK-293T reported_measurement=71%
compound=Cc1noc(-c2ccc(-c3ccc(CC(=O)O)cc3)cc2)c1NC(=O)O[C@H](C)c1ccccc1Cl tested_on=HEK-293T reported_measurement=69%
compound=O=C(CCCc1ccccc1)Nc1nc2ccccc2c(=O)s1 tested_on=HEK-293T reported_measurement=68%

---

- Tested on: Fibroblast
- measurement-description: Multiplex assay against human fibroblast
- Format: toxicity, cell-based
- measurement-conditions: 24 h, 10 µM, compound concentration 10 uM, replicate 2
result-type: Population Healthy Nuclei (%)

molecule="CC(C)(C)c1cc(NC(=O)Nc2ccc(-c3cn4c(n3)sc3cc(OCCN5CCOCC5)ccc34)cc2)no1 [QUIZARTINIB]" reported_measurement=46%
molecule=COc1cccc2c1c(NS(=O)(=O)c1ccc(Cl)s1)nn2Cc1cccc(CNC(=O)C(C)(C)O)c1 reported_measurement=55%
molecule="CCCCC1=NC2(CCCC2)C(=O)N1Cc1ccc(-c2ccccc2-c2nnn[nH]2)cc1 [IRBESARTAN]" reported_measurement=47%
molecule="CCCCCC(O)/C=C/[C@H]1C(=O)CC(O)C1C/C=C\\CCCC(=O)O (some centres undefined)" reported_measurement=59%

---

- Test system: HEK-293T
- measurement-description: Multiplex assay against HEK293T
- Type: toxicity, cell-based
- measurement-conditions: human, 12 h, 10 µM, compound concentration 10 uM, replicate 1
result-type: Population Healthy Nuclei (%)

compound=CN(C)C(=O)Cn1cc(-c2ccc(-c3cncc4ccccc34)cc2)cn1 reported_measurement=73%
compound=CN[C@@H](C)C(=O)N[C@H](C(=O)N1CCC[C@H]1C(=O)Nc1snnc1-c1ccccc1)C1CCCCC1 reported_measurement=73%
compound="Cl.N=C(N)NC(=O)Cc1c(Cl)cccc1Cl [GUANFACINE HYDROCHLORIDE]" reported_measurement=67%
compound=COc1ccccc1N1CCN(C[C@@H](C(=O)NC(C)(C)C)c2ccccc2)CC1.Cl.Cl reported_measurement=69%
compound=Cc1cnc(-c2cc(N3CCN(C(=O)CCS(C)(=O)=O)CC3)ncc2Cl)c(C)c1 reported_measurement=82%
compound=CC(C)COc1ccc(CNC(=O)N(Cc2ccc(F)cc2)C2CCN(C)CC2)cc1 reported_measurement=60%
compound=O=C1[C@H](Cc2ccc(O)cc2)N2C(=O)CCN(C(=O)NCc3ccccc3)[C@H]2CN1Cc1cccc2ccccc12 reported_measurement=74%
compound=CCc1cc2cc(NS(=O)(=O)c3ccc(C#N)cc3)ccc2n(CC)c1=O reported_measurement=80%
compound=CC[C@@H](C)Nc1nc(C)nc2c(-c3ccc(OC)nc3C)c(C)nn12 reported_measurement=75%
compound=C[C@H](N)COC(=O)[C@@H](CCCCN)NC(=O)Cc1c(-c2ccc3ccccc3c2)[nH]c2c1ccc1ccccc12 reported_measurement=78%
compound="Br.CS(=O)(=O)Nc1c(O)ccc2c1CCCC2C1=NCCN1 (configuration not stated)" reported_measurement=76%
compound=CCCCC1=NC2(CCCC2)C(=O)N1Cc1ccc(-c2ccccc2-c2nnn[nH]2)cc1 reported_measurement=70%
compound=O=C(CCCc1ccccc1)Nc1nc2ccccc2c(=O)s1 reported_measurement=80%
compound="CCCCCC(O)/C=C/[C@H]1C(=O)CC(O)C1C/C=C\\CCCC(=O)O (some centres not stated)" reported_measurement=79%
compound=CC(C)(C)c1cc(NC(=O)Nc2ccc(-c3cn4c(n3)sc3cc(OCCN5CCOCC5)ccc34)cc2)no1 reported_measurement=71%
compound="O=C(NCCN1CCC(n2c(=O)[nH]c3cc(Cl)ccc32)CC1)c1ccc(F)cc1 [HALOPEMIDE]" reported_measurement=74%
compound=Cc1cccc(NC(=O)CN2CCC(c3ccccn3)CC2)c1.Cl.Cl reported_measurement=71%
